Data origin: patent US12319659B2

TESTED_ON: dopamine D3 receptor (Homo sapiens, UniProt P35462)
Sequence (P35462 whole entry): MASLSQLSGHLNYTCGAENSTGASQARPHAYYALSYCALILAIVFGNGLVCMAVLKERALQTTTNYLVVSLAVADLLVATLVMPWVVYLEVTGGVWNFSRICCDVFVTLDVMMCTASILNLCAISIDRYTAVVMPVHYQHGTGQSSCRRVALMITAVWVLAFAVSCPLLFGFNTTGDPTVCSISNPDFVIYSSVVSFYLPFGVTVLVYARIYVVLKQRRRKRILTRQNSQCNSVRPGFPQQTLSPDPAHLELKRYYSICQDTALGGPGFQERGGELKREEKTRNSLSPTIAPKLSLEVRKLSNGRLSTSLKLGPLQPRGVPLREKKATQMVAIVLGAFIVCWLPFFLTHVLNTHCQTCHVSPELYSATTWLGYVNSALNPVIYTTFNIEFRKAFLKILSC
ASSAY_DETAILS: cell-based
pKi: −log10 of the molar value. Counter-ions that a name gives are not always drawn.
ASSAY_METRIC: pKi

[A] O=C(NCCCCN1CCN(c2ccc(Cl)cc2)CC1)Nc1cnc2ccccc2c1 [Compound 8i]
[B] O=C(NCCCCN1CCN(c2ccc(Cl)cc2)CC1)Nc1cnc2ccccc2c1 [8i•HCl]
[C] O=C(NCCCCN1CCN(c2cccc(Cl)c2Cl)CC1)c1cc2ccccc2[nH]1 [Compound 31j, reference compound]
Ask: // ranking: key=pKi, reverse=True To answer, arrange all of the labels according to the requested order.
Result: A, B, C

====

TESTED_ON: dopamine D2 receptor (Homo sapiens)
Construct: expressed in transfected cells; host or cells: Human embryonic kidney-293 cells
ASSAY_DETAILS: Competitive inhibition test using radioligands ([3H]-sulpiride), D2 receptor
Type: binding
CONDITION_DESCRIPTION: [3H]-sulpiride competition, HEK-293 cells; read-out: KiD2R
Counter-ions that a name gives are not always drawn.
ASSAY_METRIC: Ki (µM)

[a] O=C1c2ccccc2C(=O)N1CCCCN1CCN(c2cccc(F)c2F)CC1 [Compound 3d]
[b] O=C(NCCCCN1CCN(c2ccc(Cl)cc2)CC1)Nc1cnc2ccccc2c1 [8i•HCl]
Ask: Endpoint returns the identifier whose Ki is numerically larger, either a or b . Give the label of your selection.
Result: b
(b: 53.1 µM, a: 2.16 µM)

====

TESTED_ON: dopamine D2 receptor (Homo sapiens)
Construct: expressed in transfected cells; host or cells: Human embryonic kidney-293 cells
ASSAY_DETAILS: Competitive inhibition test using radioligands ([3H]-sulpiride), D2 receptor
Assay type: binding
CONDITION_DESCRIPTION: arylpiperazine-arylurea compounds at 100 nM, [3H]-sulpiride, HEK-293 cells (Table 2)
Counter-ions that a name gives are not always drawn.
ASSAY_METRIC: D2 Receptor Displacement (%)

[I] O=C(NCCCCN1CCN(c2ccc(Cl)cc2Cl)CC1)Nc1nc2ccccc2s1 [21k•HCl]
[II] O=C(NCCCCN1CCN(c2ccc(Cl)cc2)CC1)Nc1nc2ccccc2s1 [21i•HCl]
[III] O=C(NCCCCN1CCN(c2cc(C(F)(F)F)ccc2F)CC1)Nc1cnc2ccccc2c1 [8n•HCl]
[IV] O=C(NCCCCN1CCN(c2cccc(C(F)(F)F)c2)CC1)Nc1cnc2ccccc2c1 [8p•HCl]
[V] O=C(NCCCCN1CCN(c2cccc(Cl)c2Cl)CC1)Nc1nc2ccccc2s1 [21j•HCl]
Ask: Please rank the 5 items above; order by D2 Receptor Displacement (%), the highest number leading. Rank the items, then write their labels in that order.
Result: IV, V, II, I, III

[1] O=C(NCCCCN1CCN(c2ccc(Cl)cc2)CC1)Nc1cnc2ccccc2c1 [8i•HCl]
[2] O=C(NCCCCN1CCN(c2cc(C(F)(F)F)ccc2F)CC1)Nc1cnc2ccccc2c1 [Compound 8n]
[3] O=C(NCCCCN1CCN(c2ccc(Cl)cc2Cl)CC1)Nc1nc2ccccc2s1 [Compound 21k]
[4] O=C(NCCCCN1CCN(c2cccc(C(F)(F)F)c2)CC1)Nc1cnc2ccccc2c1 [Compound 8p]
Ask: hey, can you rank those compounds up there by D2 Receptor Displacement (%)? biggest number first please Answer by listing the labels in the order asked for.
Result: 3, 2, 1, 4

====

ASSAY_DETAILS: Solubility assay in anhydrous ethanol
Type: physicochemical
CONDITION_DESCRIPTION: organic solvent or mixture, 10 mg/mL
ASSAY_METRIC: solubility

Ask: Value lookup for solubility; key = `O=C(NCCCCN1CCN(c2ccc(Cl)cc2)CC1)Nc1cnc2ccccc2c1`
Result: < 5000 µg/mL

====

ASSAY_DETAILS: Solubility assay in anhydrous ethanol
Assay type: physicochemical
CONDITION_DESCRIPTION: organic solvent or mixture, 5 mg/mL
ASSAY_METRIC: solubility

Ask: Which solubility value is on record for O=C(NCCCCN1CCN(c2ccc(Cl)cc2)CC1)Nc1cnc2ccccc2c1 [Compound 8i] ?
Result: < 5000 µg/mL

====

TESTED_ON: dopamine D2 receptor (Homo sapiens, UniProt P14416)
Construct: expressed in transfected cells; host or cells: Human embryonic kidney-293 cells
Sequence (P14416 whole entry): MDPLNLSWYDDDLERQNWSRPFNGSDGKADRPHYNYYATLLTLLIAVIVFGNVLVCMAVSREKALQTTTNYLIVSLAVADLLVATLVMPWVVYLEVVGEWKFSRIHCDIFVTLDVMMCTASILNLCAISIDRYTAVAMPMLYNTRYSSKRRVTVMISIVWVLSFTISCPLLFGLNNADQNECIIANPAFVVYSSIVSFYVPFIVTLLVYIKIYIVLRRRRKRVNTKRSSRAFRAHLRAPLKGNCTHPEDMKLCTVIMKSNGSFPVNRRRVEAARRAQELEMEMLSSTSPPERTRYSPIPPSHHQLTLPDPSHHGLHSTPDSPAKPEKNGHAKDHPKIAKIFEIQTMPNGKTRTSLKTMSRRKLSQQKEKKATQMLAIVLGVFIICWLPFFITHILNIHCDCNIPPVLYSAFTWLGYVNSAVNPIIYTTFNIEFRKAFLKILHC
ASSAY_DETAILS: Competitive inhibition test using radioligands ([3H]-sulpiride), D2 receptor
Assay type: binding
CONDITION_DESCRIPTION: […], arylpiperazine-phthalimide compounds at 100 nM, [3H]-sulpiride, HEK-293 cells (Table 1); read-out: D2 Receptor Displacement (%)
ASSAY_METRIC: inhibition (%)

O=C1c2ccccc2C(=O)N1CCCCN1CCN(c2ccccc2Cl)CC1 [Compound 3g]    28.7
O=C1c2ccccc2C(=O)N1CCCCN1CCN(c2cccc(Cl)c2)CC1 [Compound 3h]    64.8
O=C1c2ccccc2C(=O)N1CCCCN1CCN(c2cccc(C(F)(F)F)c2)CC1 [Compound 3p]    44
O=C1c2ccccc2C(=O)N1CCCCN1CCN(c2cc(C(F)(F)F)ccc2F)CC1 [Compound 3n]    -4.7
O=C1c2ccccc2C(=O)N1CCCCN1CCN(c2cccc(Cl)c2Cl)CC1 [Compound 3j]    70.3

[1] O=C1c2ccccc2C(=O)N1CCCCN1CCN(c2ccc(F)cc2)CC1 [Compound 3c]
[2] CCN1CCCC1CNC(=O)c1cc(S(N)(=O)=O)ccc1OC (stereo not shown) [sulpiride, reference compound]
[3] O=C1c2ccccc2C(=O)N1CCCCN1CCN(c2ccccc2F)CC1 [Compound 3a]
[4] O=C1c2ccccc2C(=O)N1CCCCN1CCN(c2ccc(Cl)cc2F)CC1 [Compound 3m]
Ask: Descending sort on inhibition required. Ranked list of labels, please, in the requested order.
Result: 2, 3, 4, 1
(2: 92.2%, 3: 31.8%, 4: 2.8%, 1: -6.3%)

====

TESTED_ON: dopamine D2 receptor (Homo sapiens)
Construct: expressed in transfected cells; host or cells: Human embryonic kidney-293 cells
ASSAY_DETAILS: Competitive inhibition test using radioligands ([3H]-sulpiride), D2 receptor
Format: binding
CONDITION_DESCRIPTION: arylpiperazine-phthalimide compounds at 100 nM, [3H]-sulpiride, HEK-293 cells (Table 1)
Where a name gives a salt, the structure may show the parent alone.
ASSAY_METRIC: D2 Receptor Displacement (%)

O=C1c2ccccc2C(=O)N1CCCCN1CCN(c2ccc(Cl)cc2)CC1 [3i•HCl]    16.3

[1] O=C1c2ccccc2C(=O)N1CCCCN1CCN(c2ccc(F)cc2F)CC1
[2] O=C1c2ccccc2C(=O)N1CCCCN1CCN(c2ccc(Cl)cc2)CC1 [Compound 3i]
[3] O=C1c2ccccc2C(=O)N1CCCCN1CCN(c2c(F)cccc2F)CC1
[4] O=C1c2ccccc2C(=O)N1CCCCN1CCN(c2cccc(F)c2F)CC1
[5] O=C1c2ccccc2C(=O)N1CCCCN1CCN(c2cccc(C(F)(F)F)c2)CC1 [3p•HCl]
Ask: Rank the 5 compounds: largest D2 Receptor Displacement (%) first, smallest last. Form field (ranking): labels in requested order.
Result: 2, 5, 4, 3, 1
(2: 59.2%, 5: 37.9%, 4: 17.7%, 3: 10.3%, 1: 4.8%)
